Molecular target: bovine cytochrome bc1 (Bos taurus, UniProt P00157)
Construct: Crude mitochondria were isolated from fresh bovine hearts; from tissue; host or cells: bovine heart mitochondria
Assay: Bovine cytochrome bc1 activity assay
Type: biochemical
Conditions: at 0.1 µM; triplicate
Experimental: Cytochrome bc1 was purified from mitochondria, as previously described. Crude mitochondria were isolated from fresh bovine hearts and solubilized with the addition of dodecyl-maltoside (DDM). The solubilized protein was loaded onto a 50 mL DEAE Sepharose CL6B (GE Healthcare, Uppsala, Sweden) column pre-equilibrated in and washed with three column volumes of 50 mM KPi pH 7.5, 250 mM NaCl, 0.5 mM EDTA, and 0.01% DDM. The bound protein was eluted along a linear gradient from 250 to 500 mM NaCl. […]
recorded metric: inhibition at 0.1 µM (%)

Below are worked cases with known answers.
molecule	inhibition at 0.1 µM (%)
COc1cc2[nH]c(C)c(-c3ccc(Oc4ccc(OC(F)(F)F)cc4)cc3)c(=O)c2cc1Cl [ELQ300]	22
Cc1[nH]c2ccccc2c(=O)c1-c1ccc(Cc2ccc(OC(F)(F)F)cc2)cc1 [WDH-1U-4]	7
Cc1c(-c2ccc(Cc3ccc(OC(F)(F)F)cc3)cc2)n(O)c2ccccc2c1=O [RKA066]	81

A = COc1ccc2c(=O)c(C)c(-c3cncc(-c4ccc(OC(F)(F)F)cc4)c3)[nH]c2c1 [SCR0911]
B = Cc1[nH]c(CO)c(-c2ccc(Oc3ccc(OC(F)(F)F)cc3)cc2)c(=O)c1Cl [GSK932121]
Problem: Which value of inhibition at 0.1 µM is greater, the one for A or the one for B ? State your choice using its label.
Result: B

* * *

Molecular target: bovine cytochrome bc1 (Bos taurus)
Construct: Crude mitochondria were isolated from fresh bovine hearts; from tissue; host or cells: bovine heart mitochondria
Experiment: Bovine cytochrome bc1 activity assay
Type: biochemical
Conditions: at 1 µM; triplicate
recorded metric: inhibition at 1 µM (%)

compound	units symbol	readout value
COc1ccc2c(=O)c(C)c(-c3cncc(-c4ccc(OC(F)(F)F)cc4)c3)[nH]c2c1 [SCR0911]	%	72
COc1cc2[nH]c(C)c(-c3ccc(Oc4ccc(OC(F)(F)F)cc4)cc3)c(=O)c2cc1Cl [ELQ300]	%	51
Cc1[nH]c(C)c(-c2ccc(Oc3ccc(OC(F)(F)F)cc3)cc2)c(=O)c1Cl [GW844520]	%	79
Cc1[nH]c(CO)c(-c2ccc(Oc3ccc(OC(F)(F)F)cc3)cc2)c(=O)c1Cl [GSK932121]	%	82

I = Cc1c(-c2ccc(Cc3ccc(OC(F)(F)F)cc3)cc2)n(O)c2ccccc2c1=O [RKA066]
II = Cc1[nH]c2ccccc2c(=O)c1-c1ccc(Cc2ccc(OC(F)(F)F)cc2)cc1 [WDH-1U-4]
Problem: Lowest inhibition at 1 µM? choose I or II # answer = label of selected item
Result: II

From: paper PMC9330653
